reportedProperty: pIC50
Scale: negative log10 of molar concentration, which is what pIC50 denotes.

Value sought: pIC50, system EGFR (UniProt P00533), item `COc1cccc(-c2cn(-c3ccc(CCN(C)CCO)cc3)c3ncncc23)c1` . Result: 5.00

* * *

# subjectOfTest: MAPK14 (human) (UniProt Q16539)
# Sequence (Q16539 whole entry, looked up): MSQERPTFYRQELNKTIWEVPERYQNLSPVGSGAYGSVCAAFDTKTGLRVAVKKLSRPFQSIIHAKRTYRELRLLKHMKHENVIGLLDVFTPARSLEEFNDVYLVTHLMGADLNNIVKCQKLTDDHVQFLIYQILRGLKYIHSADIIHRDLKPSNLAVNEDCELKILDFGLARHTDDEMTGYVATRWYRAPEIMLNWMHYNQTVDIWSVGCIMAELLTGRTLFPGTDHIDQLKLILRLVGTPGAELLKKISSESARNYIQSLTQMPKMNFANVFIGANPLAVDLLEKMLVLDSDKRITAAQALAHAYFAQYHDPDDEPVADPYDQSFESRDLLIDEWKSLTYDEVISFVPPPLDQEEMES
# protocolDetails: p38-alpha Kinase Inhibition
# assayConditions: COS-1
pIC50: −log10 of the molar value.
reportedProperty: pIC50

// field: pIC50; key: `Cc1ccccc1Cc1ccc(Nc2ccc(F)cc2C)cc1Cl` ; value = < 4.00

* * *

# subjectOfTest: EGFR (human) (UniProt P00533)
# Sequence (P00533 whole entry, looked up): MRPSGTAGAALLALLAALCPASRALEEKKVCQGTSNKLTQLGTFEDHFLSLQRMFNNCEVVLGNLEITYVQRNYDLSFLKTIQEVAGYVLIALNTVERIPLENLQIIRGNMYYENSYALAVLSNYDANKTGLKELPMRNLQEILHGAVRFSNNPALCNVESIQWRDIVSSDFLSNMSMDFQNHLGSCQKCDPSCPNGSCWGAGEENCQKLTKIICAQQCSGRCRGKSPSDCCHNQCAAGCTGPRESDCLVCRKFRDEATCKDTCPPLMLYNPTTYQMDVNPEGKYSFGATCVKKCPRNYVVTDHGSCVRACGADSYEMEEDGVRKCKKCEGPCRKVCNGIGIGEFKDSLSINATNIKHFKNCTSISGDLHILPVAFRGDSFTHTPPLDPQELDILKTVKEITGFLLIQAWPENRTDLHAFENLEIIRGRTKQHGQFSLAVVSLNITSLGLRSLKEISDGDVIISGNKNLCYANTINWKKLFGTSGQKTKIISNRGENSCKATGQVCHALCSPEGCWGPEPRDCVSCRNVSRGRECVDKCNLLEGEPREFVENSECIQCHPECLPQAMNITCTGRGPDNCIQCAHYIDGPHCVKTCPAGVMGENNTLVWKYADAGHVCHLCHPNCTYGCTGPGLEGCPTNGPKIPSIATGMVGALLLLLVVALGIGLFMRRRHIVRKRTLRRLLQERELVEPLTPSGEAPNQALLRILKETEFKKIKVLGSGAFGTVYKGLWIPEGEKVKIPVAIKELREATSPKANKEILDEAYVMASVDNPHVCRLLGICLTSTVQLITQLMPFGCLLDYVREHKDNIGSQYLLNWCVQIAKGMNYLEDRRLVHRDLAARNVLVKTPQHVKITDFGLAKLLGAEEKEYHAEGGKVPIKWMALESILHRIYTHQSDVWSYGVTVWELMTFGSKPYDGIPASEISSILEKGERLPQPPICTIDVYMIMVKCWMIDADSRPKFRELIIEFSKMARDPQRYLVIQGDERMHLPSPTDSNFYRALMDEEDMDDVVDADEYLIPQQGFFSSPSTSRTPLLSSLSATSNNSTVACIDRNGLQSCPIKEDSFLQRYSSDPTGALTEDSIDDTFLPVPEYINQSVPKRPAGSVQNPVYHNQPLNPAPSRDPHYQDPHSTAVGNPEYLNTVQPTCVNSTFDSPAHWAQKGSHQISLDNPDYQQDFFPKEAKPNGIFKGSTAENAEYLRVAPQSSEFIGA
# assayConditions: kb
reportedProperty: IC50 (µM)
Write the number in µM without appending the unit.

Value sought: IC50, system EGFR (human) (UniProt P00533), item `Fc1ccc(Nc2ncnc3ccc(-c4ccc(CCN5CCOCC5)s4)cc23)cc1Cl` . Result: 0.19

* * *

# subjectOfTest: UniProtKB P42336
# Sequence (P42336 whole entry, looked up): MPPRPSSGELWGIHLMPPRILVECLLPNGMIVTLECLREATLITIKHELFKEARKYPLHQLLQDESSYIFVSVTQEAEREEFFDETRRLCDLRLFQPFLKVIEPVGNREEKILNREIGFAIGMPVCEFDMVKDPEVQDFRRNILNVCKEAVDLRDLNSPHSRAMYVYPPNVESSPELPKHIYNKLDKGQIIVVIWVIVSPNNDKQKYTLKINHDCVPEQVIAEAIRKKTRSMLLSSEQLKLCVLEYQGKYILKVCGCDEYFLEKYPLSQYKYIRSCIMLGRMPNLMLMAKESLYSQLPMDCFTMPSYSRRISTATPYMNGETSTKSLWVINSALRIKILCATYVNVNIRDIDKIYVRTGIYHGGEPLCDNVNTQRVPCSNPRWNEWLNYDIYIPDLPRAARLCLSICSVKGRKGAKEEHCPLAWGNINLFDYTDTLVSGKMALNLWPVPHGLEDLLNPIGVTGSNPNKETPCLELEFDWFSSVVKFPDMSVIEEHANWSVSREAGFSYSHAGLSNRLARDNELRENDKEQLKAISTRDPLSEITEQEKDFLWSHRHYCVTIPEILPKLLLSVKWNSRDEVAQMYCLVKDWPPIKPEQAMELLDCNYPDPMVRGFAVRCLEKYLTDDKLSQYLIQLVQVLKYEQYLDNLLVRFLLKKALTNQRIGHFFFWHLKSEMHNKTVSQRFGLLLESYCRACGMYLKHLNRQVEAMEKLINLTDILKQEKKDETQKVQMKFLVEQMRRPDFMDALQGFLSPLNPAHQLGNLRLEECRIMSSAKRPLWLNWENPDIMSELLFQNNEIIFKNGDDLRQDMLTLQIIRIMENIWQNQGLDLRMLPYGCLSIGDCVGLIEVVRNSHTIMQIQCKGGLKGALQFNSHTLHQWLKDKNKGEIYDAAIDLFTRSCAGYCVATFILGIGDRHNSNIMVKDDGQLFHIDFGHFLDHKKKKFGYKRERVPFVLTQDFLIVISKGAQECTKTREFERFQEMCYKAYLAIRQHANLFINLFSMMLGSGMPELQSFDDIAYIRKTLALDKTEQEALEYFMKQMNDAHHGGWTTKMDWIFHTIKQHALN
# protocolDetails: Enzyme Assay
For each record, write down the corresponding IC50.
Write the number in nM without appending the unit.

Value sought: IC50, system UniProtKB P42336, item `COc1ncc(-c2ccc3nnc(C#CC(C)(C)O)n3n2)cc1NS(=O)(=O)c1ccc(F)cc1` . Result: 32

Value sought: IC50, system UniProtKB P42336, item `CCN1CC(C)(C)Oc2nc(N3CCOC[C@@H]3C)nc(-c3ccc(NC(=O)Nc4ccc(C)cn4)cc3)c2C1=O` . Result: 1450

Value sought: IC50, system UniProtKB P42336, item `Cn1c(=O)n(-c2ccc(C(C)(C)C#N)cc2)c2c3cc(C#Cc4cccnc4)ccc3ncc21` . Result: 71

Value sought: IC50, system UniProtKB P42336, item `COc1ncc(N2CCc3ncnc(N[C@H]4CCN(C(=O)[C@H]5CC[C@@H](O)CC5)C4)c3C2)cc1C(F)(F)F` . Result: 118

Value sought: IC50, system UniProtKB P42336, item `CS(=O)(=O)N1CC2CCC(C1)N2c1cn2cc(-c3cnc(N)nc3)nc(N3CCOCC3)c2n1` . Result: 108

Value sought: IC50, system UniProtKB P42336, item `C[C@@H](Oc1ccccc1)c1cc(C(=O)N(C)CCO)cn2c(=O)cc(N3CCOCC3)nc12` . Result: 3500

Value sought: IC50, system UniProtKB P42336, item `COc1ncc(N2CCc3ncnc(N[C@H]4CCN(C(=O)[C@H]5CC[C@H](O)CC5)C4)c3C2)cc1C(F)(F)F` . Result: 106

Value sought: IC50, system UniProtKB P42336, item `C[C@@H]1COC[C@@H](C)N1c1nc(Oc2ccc(C(=O)N(C)C)cc2)nc(-c2cnc(N)s2)n1` . Result: 6000

Value sought: IC50, system UniProtKB P42336, item `O=C(c1cn2cc(-c3cccc4[nH]ncc34)nc(N3CCOCC3)c2n1)N1CCNCC1` . Result: 182

Value sought: IC50, system UniProtKB P42336, item `COCCCNC(=O)c1cn2cc(-c3cccnc3)nc(N3CCOCC3)c2n1` . Result: 617

Value sought: IC50, system UniProtKB P42336, item `CS(=O)(=O)N1CCN(Cc2csc3c(-c4cnc(N)nc4)nc(N4CCOCC4)nc23)CC1` . Result: 9.5
